assay: Efflux ratio of apparent permeability from basolateral to apical over apical to basolateral side in human Caco2 cells; format: ADME, cell-based; settings: Caco-2
Reported values of efflux ratio for individual entries
Field format: numeric only.

{"Given smiles": "COc1cccc(-c2cccc(NC(=O)CCc3cccc4c3B(O)OC4)c2)c1", "efflux ratio": 1.36}

Next up:
-- ask Param item = CC(=O)c1ccc(-c2cccc(NC(=O)CCc3cccc4c3B(O)OC4)c2)cc1 ; retrieve measured efflux ratio.
-- reply 0.56
